- Tested on: P. falciparum Cam3.II lines
- Assay name: Isobologram analyses (fixed-ratio drug combinations)
- Assay type: cell-based, Plasmodium falciparum
- Stated conditions: combined with WLW; Trophozoites, 3 hr exposure; Cam3.II K13C580Y
Endpoint label: Mean of the sums of FIC50 (mean ΣFIC50)

{"columns": ["Compound", "Result"],
 "data": [
  ["CCN(CC)CCCC(C)Nc1ccnc2cc(Cl)ccc12 (stereo not drawn)", 1.41],
  ["C=CC(=O)N1C/C(=C\\c2ccc([N+](=O)[O-])cc2)C(=O)/C(=C/c2ccc([N+](=O)[O-])cc2)C1", 0.52],
  ["CN(C)c1ccc2nc3ccc(=[N+](C)C)cc-3sc2c1", 0.78],
  ["C[C@H]1[C@@H](O)O[C@@H]2O[C@@]3(C)CC[C@H]4[C@H](C)CC[C@@H]1[C@@]24OO3 [DHA, dihydroartemisinin]", 0.73],
  ["O=C1C(O)=C([C@H]2CC[C@H](c3ccc(Cl)cc3)CC2)C(=O)c2ccccc21", 1.07],
  ["CC1(C)C(N(O)C(=O)Nc2ccc(Cl)cc2)N(c2ccc(Cl)cc2)C(=O)N1CC(=O)N/N=C/C=C/c1ccc([N+](=O)[O-])o1 (stereo not drawn)", 1.08],
  ["c1cc([C@H]2CC[C@]3(CC2)OO[C@]2(O3)C3CC4CC(C3)CC2C4)ccc1OCCN1CCOCC1", 0.51],
  ["CCCCN(CCCC)CC(O)c1cc(Cl)cc2c1-c1ccc(Cl)cc1/C2=C/c1ccc(Cl)cc1 (stereo not drawn)", 1.01],
  ["Clc1ccc2c(N3CCN(CCCN4CCN(c5ccnc6cc(Cl)ccc56)CC4)CC3)ccnc2c1", 1.20]
]}
